tested on: Staphylococcus aureus; assay: In vitro antibacterial activity against methicillin-sensitive Staphylococcus aureus A15090; assay type: functional
Readout type: log10 MIC (log10 of the value in µg/mL)
All values: log10 MIC [µg/mL].

{"Compound": "CO/C(C)=C1/NC(=O)[C@H]([C@@H](C)O)NC(=O)c2csc(n2)-c2cc(O)c(-c3nc(C(=O)NC(CN4CCN(c5ccccn5)CC4)C(N)=O)cs3)nc2-c2csc(n2)[C@@H]2COC(=O)c3c4c5c(cccc5n3O)COC(=O)[C@@H](O[C@H]3C[C@](C)(O)[C@H](N(C)C)[C@H](C)O3)[C@@H](OC4)[C@H](NC(=O)c3csc1n3)c1nc(cs1)C(=O)N2 (stereo partly specified)", "Assayed system": "Staphylococcus aureus", "Recorded value": -0.92}
{"Compound": "CO/C(C)=C1/NC(=O)C([C@@H](C)O)NC(=O)c2csc(n2)-c2cc(O)c(-c3nc(C(=O)NC(CNCCCn4ccnc4)C(N)=O)cs3)nc2-c2csc(n2)[C@@H]2COC(=O)c3c4c5c(cccc5n3O)COC(=O)[C@@H](O[C@H]3C[C@](C)(O)[C@H](N(C)C)[C@H](C)O3)[C@@H](OC4)[C@H](NC(=O)c3csc1n3)c1nc(cs1)C(=O)N2 (stereo partly specified)", "Assayed system": "Staphylococcus aureus", "Recorded value": -0.30}
{"Compound": "CO/C(C)=C1/NC(=O)[C@H]([C@@H](C)O)NC(=O)c2csc(n2)-c2cc(O)c(-c3nc(C(=O)NC(CN(C)CCN4CCCCC4)C(N)=O)cs3)nc2-c2csc(n2)[C@@H]2COC(=O)c3c4c5c(cccc5n3O)COC(=O)[C@@H](O[C@H]3C[C@](C)(O)[C@H](N(C)C)[C@H](C)O3)[C@@H](OC4)[C@H](NC(=O)c3csc1n3)c1nc(cs1)C(=O)N2 (stereo partly specified)", "Assayed system": "Staphylococcus aureus", "Recorded value": -0.92}
{"Compound": "C=C(NC(=O)c1csc(-c2nc3c(cc2O)-c2nc(cs2)C(=O)N[C@@H]([C@@H](C)O)C(=O)N/C(=C(\\C)OC)c2nc(cs2)C(=O)N[C@@H]2c4nc(cs4)C(=O)N[C@@H](COC(=O)c4c5c6c(cccc6n4O)COC(=O)C(O[C@H]4C[C@](C)(O)[C@H](N(C)C)[C@H](C)O4)[C@H]2OC5)c2nc-3cs2)n1)C(N)=O (stereo partly specified)", "Assayed system": "Staphylococcus aureus", "Recorded value": -2.15}

# input compound: CO/C(C)=C1/NC(=O)[C@H]([C@@H](C)O)NC(=O)c2csc(n2)-c2cc(O)c(-c3nc(C(=O)NC(CN4CCN(c5ccncc5)CC4)C(N)=O)cs3)nc2-c2csc(n2)[C@@H]2COC(=O)c3c4c5c(cccc5n3O)COC(=O)[C@@H](O[C@H]3C[C@](C)(O)[C@H](N(C)C)[C@H](C)O3)[C@@H](OC4)[C@H](NC(=O)c3csc1n3)c1nc(cs1)C(=O)N2 (stereo partly specified) ; wanted: its log10 MIC
# output -0.60

# input compound: CO/C(C)=C1/NC(=O)[C@H]([C@@H](C)O)NC(=O)c2csc(n2)-c2cc(O)c(-c3nc(C(=O)NC(CN4CCN(c5cccnc5)CC4)C(N)=O)cs3)nc2-c2csc(n2)[C@@H]2COC(=O)c3c4c5c(cccc5n3O)COC(=O)[C@@H](O[C@H]3C[C@](C)(O)[C@H](N(C)C)[C@H](C)O3)[C@@H](OC4)[C@H](NC(=O)c3csc1n3)c1nc(cs1)C(=O)N2 (stereo partly specified) ; wanted: its log10 MIC
# output -1.22
